- target_system: SETD2(1434-1711) (Homo sapiens, UniProt Q9BYW2)
- Construct: SETD2 (1434-1711) Assay; catalogue N/A
- test_description: SETD2 (1434-1711) assay
- Format: biochemical
- setup_conditions: read-out: SETD2 (1434-1711)
Entries and their log10 IC50
Answers are given as log10 of IC50 in µM.

Cc1ccc(F)c2cc(C(=O)NC3CCCC(N4CCn5nc(C(F)(F)F)nc5C4)C3)[nH]c12 (centres unmarked)
0.74

# input Please give the measured log10 IC50 for this compound: CCC(=O)N1CCN([C@H]2CCC[C@@H](NC(=O)c3cc4c(F)ccc(C)c4[nH]3)C2)CC1C(F)(F)F (some centres unmarked)
# output -2.00

# input Please give the measured log10 IC50 for this compound: `Cc1ccc(F)c2cc(C(=O)Nc3cc(F)cc(N4C[C@H]5CCN(C)[C@H]5C4)c3)[nH]c12`
# output -2.00

# input Please give the measured log10 IC50 for this compound: `Cc1ccc(F)c2cc(C(=O)Nc3cccc(-c4cc(N)on4)c3)[nH]c12`
# output -0.30

# input Please give the measured log10 IC50 for this compound: `Cc1cccc2cc(C(=O)Nc3ccc4nc(CN5CCNCC5)ncc4c3)[nH]c12`
# output 0.30

# input Please give the measured log10 IC50 for this compound: Cc1ccc(F)c2cc(C(=O)N[C@@H]3CCC[C@@H](N4CCN5C(=O)OCC5C4)C3)[nH]c12 (some centres unmarked)
# output -0.05

# input Please give the measured log10 IC50 for this compound: Cc1ccc(F)c2cc(C(=O)NC3CCCC(N4CCC(N(C)C(=O)CO)C4)C3)[nH]c12 (centres unmarked) [compound 995]
# output -2.10

* * *

- target_system: SETD2(1434-1711) (Homo sapiens, UniProt Q9BYW2)
- Construct: SETD2 (1434-1711) Assay; catalogue N/A
- test_description: SETD2 (1434-1711) assay
- Type: biochemical
- setup_conditions: read-out: SETD2 (1434-1711)
Entries and their pIC50
Conceptually, pIC50 converts a concentration in mol/L into minus its log10.

Cc1ccc(F)c2cc(C(=O)Nc3cccc(N4CCC(N(C)CCF)C4)c3)[nH]c12 (stereo not drawn) [compound 130]
7.40

# input Identify the measured pIC50 of Cc1ccc(F)c2cc(C(=O)Nc3cc(F)cc(N4CCCN(C)C(=O)C4)c3)[nH]c12 [compound 183] for SETD2(1434-1711) (Homo sapiens, UniProt Q9BYW2).
# output 7.05

# input Identify the measured pIC50 of Cc1ccc(F)c2cc(C(=O)Nc3cc(Cl)cc(-c4cncnc4)c3)[nH]c12 [compound 145] for SETD2(1434-1711) (Homo sapiens, UniProt Q9BYW2).
# output 7.52

# input Identify the measured pIC50 of Cc1cccnc1C(CCC(=O)N1CCOCC1)NC(=O)c1cc2c(F)ccc(C)c2[nH]1 (stereo not drawn) [compound 334] for SETD2(1434-1711) (Homo sapiens, UniProt Q9BYW2).
# output 6.15

* * *

- target_system: SETD2(1434-1711) (Homo sapiens, UniProt Q9BYW2)
- Construct: SETD2 (1434-1711) Assay; catalogue N/A
- test_description: SETD2 (1434-1711) assay
- Format: biochemical
- setup_conditions: read-out: SETD2 (1434-1711)
measure_name: IC50

Cc1ccc(F)c2cc(C(=O)Nc3nnc(C4CCN(C)CC4)[nH]3)[nH]c12
> 10 µM
Cc1cncnc1C(NC(=O)c1cc2cccc(C)c2[nH]1)C1CC1 (stereo not drawn)
> 50 µM

# input Please give the measured IC50 for this compound: `CC(=O)N1CCN([C@@H]2C[C@@H](NC(=O)c3cc4c(F)ccc(C)c4[nH]3)CN(C)C2)CC1`
# output > 10 µM

* * *

- target_system: SETD2(1434-1711) (Homo sapiens)
- Construct: SETD2 (1434-1711) Assay; catalogue N/A
- Sequence (Q9BYW2 1434-1711): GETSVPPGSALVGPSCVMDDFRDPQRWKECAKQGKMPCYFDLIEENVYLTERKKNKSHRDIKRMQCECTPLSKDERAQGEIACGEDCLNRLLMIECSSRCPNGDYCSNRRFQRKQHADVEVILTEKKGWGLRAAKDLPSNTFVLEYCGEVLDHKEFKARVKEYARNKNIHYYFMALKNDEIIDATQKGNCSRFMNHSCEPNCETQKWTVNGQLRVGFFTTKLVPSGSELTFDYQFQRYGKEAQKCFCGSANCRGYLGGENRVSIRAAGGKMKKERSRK
- test_description: SETD2 (1434-1711) assay
- Assay type: biochemical
- setup_conditions: read-out: SETD2 (1434-1711)
measure_name: IC50 (µM)
Provide the reading as a plain figure in µM.

A selection of reference data follows.
Cc1ccc(F)c2cc(C(=O)Nc3cccc([C@H]4CCN5C(=O)CC[C@@H]5C4)c3)[nH]c12 [compound 166]
0.07
Cc1ccc(F)c2cc(C(=O)NC3CCCC(N4CCC(N(C)C(=O)CO)C4)C3)[nH]c12 (centres unmarked) [compound 984]
5.3
Cc1c(CN2CCOCC2)cccc1NC(=O)c1cc2cccc(C)c2[nH]1 [compound 624]
10.9

# input Please give the measured IC50 for this compound: CCN(CC)Cc1cccc(NC(=O)c2cc3cccc(C)c3[nH]2)c1 [compound 486]
# output 1.8

* * *

- target_system: SETD2(1434-1711) (Homo sapiens, UniProt Q9BYW2)
- Construct: SETD2 (1434-1711) Assay; catalogue N/A
- test_description: SETD2 (1434-1711) assay
- Assay type: biochemical
- setup_conditions: read-out: SETD2 (1434-1711)
pIC50: −log10 of the molar value.
Entries and their pIC50

A selection of reference data follows.
Cc1cccc2cc(C(=O)NCC(CN(C)C)c3ccccc3)[nH]c12 (stereo not drawn) [compound 815]
< 3.70
Cc1cccc2cc(C(=O)N[C@H]3CC[C@H](NC(=O)C(F)(F)F)CC3)[nH]c12 [compound 791]
< 3.70

Would you kindly look at the next entry?
# input Please give the measured pIC50 for this compound: Cc1cccnc1C(NC(=O)C1Cc2cccc(C)c2N1)C1CC1 (stereo not drawn) [compound 607]
# output < 4.30

* * *

- target_system: SETD2(1434-1711) (Homo sapiens)
- Construct: SETD2 (1434-1711) Assay; catalogue N/A
- test_description: SETD2 (1434-1711) assay
- Format: biochemical
- setup_conditions: read-out: SETD2 (1434-1711)
measure_name: log10(IC50) (log10 of the value in nM)
Answers are given as log10 of IC50 in nM.

CC(=O)N1CCCN(c2cccc(NC(=O)c3cc4c(F)ccc(C)c4[nH]3)c2)CC1 [compound 248]
2.00
CC(=O)N(C)C1CCN(c2cccc(NC(=O)c3cc4c(F)ccc(C)c4[nH]3)c2)CC1 [compound 78]
1.60
Cc1ccc(F)c2cc(C(=O)Nc3cc(F)cc(N4CCOC(CO)C4)c3)[nH]c12 (centres unmarked) [compound 48]
1.30
COCC(=O)N1CCN([C@@H]2CCC[C@@H](NC(=O)c3cc4c(F)ccc(C)c4[nH]3)C2)CC1 [compound 847]
3.00

# input Please give the measured log10(IC50) for this compound: Cc1ccc(F)c2cc(C(=O)Nc3cccc(N4CCOCC4C)c3)[nH]c12 (centres unmarked) [compound 216]
# output 2.00

# input Please give the measured log10(IC50) for this compound: Cc1cccc2cc(C(=O)NC3CCC(=O)Nc4ccccc43)[nH]c12 (centres unmarked) [compound 704]
# output 4.85

# input Please give the measured log10(IC50) for this compound: Cc1ccc(F)c2cc(C(=O)Nc3cccc(N4CCC5(CC4)CN(CC(F)(F)F)C5)c3)[nH]c12 [compound 110]
# output 2.00

# input Please give the measured log10(IC50) for this compound: Cc1ccc(F)c2cc(C(=O)Nc3cccc(-c4nnc(N)o4)c3)[nH]c12 [compound 319]
# output 2.00

# input Please give the measured log10(IC50) for this compound: Cc1ccc(F)c2cc(C(=O)N[C@@H]3CCC[C@H](N4CCC(N(C)C(=O)CO)C4)C3)[nH]c12 (some centres unmarked) [compound 934]
# output 1.00

# input Please give the measured log10(IC50) for this compound: Cc1ccc(F)c2cc(C(=O)NC3CCCC(c4cncnc4)C3)[nH]c12 (centres unmarked) [compound 369]
# output 3.80

# input Please give the measured log10(IC50) for this compound: CC(=O)N1CCN(C2CCCC(NC(=O)c3cc4c(F)ccc(C)c4[nH]3)C2)C(C)C1 (centres unmarked) [compound 1021]
# output 1.70

# input Please give the measured log10(IC50) for this compound: Cc1cccc2cc(C(=O)Nc3ccc4cnccc4c3)[nH]c12 [compound 437]
# output 2.78

# input Please give the measured log10(IC50) for this compound: Cc1ccc(F)c2cc(C(=O)NC3CCCC(N4CCN(C5CCOC5)C(=O)C4)C3)[nH]c12 (centres unmarked) [compound 973]
# output 1.60

Reference source for all entries: patent US12116358B2
